The origin of these recorded values is ChEMBL document CHEMBL3507680.

experiment: Human HepG2 cell viability assay in 384 well format; format: toxicity, cell-based; parameters: dose 125 nL, time 70.5 hour; concentration not given beside the values; conditions: HepG2 cells, read-out: Inhibition
Field: cytotoxicity at 70.5 h. Provide a value for each of the molecules that follow.
Entry rule: numbers only, all in %.

Exercise: Given COCCNC(=O)C(C)n1nc(-c2ccco2)cc(N)c1=O (stereo unspecified) , state its recorded cytotoxicity at 70.5 h.
Solution: 23.7

Exercise: cytotoxicity at 70.5 h lookup needed for O=C(CN1CCOC1=O)N(Cc1ccccc1)Cc1nccs1 , thanks.
Solution: -14.3

Exercise: For the molecule shown here, O=C(c1ccccc1-c1ccccc1)N1CCOC2(CNCCOC2)C1 (stereo unspecified) , give the reported cytotoxicity at 70.5 h.
Solution: -11.1

Exercise: Requested field: cytotoxicity at 70.5 h. Item: O[C@@H]1C[C@H]2CN(Cc3ccccc3)[C@H](Cc3ccccc3)CN2C1
Solution: 27.4

Exercise: Could you tell me which cytotoxicity at 70.5 h is on file for Cc1ncc2c(n1)CCCC2NC(=O)c1ccccc1Cn1cncn1 (stereo unspecified) ?
Solution: 18.1

Exercise: Could you share which cytotoxicity at 70.5 h value was measured for COc1ccc(-c2noc([C@@H](C)NC(=O)NC(C)(C)C)c2C(=O)O)cc1 ?
Solution: -10.4

Exercise: May I ask what cytotoxicity at 70.5 h has been recorded for CN(C)C(=O)N[C@H]1CN(C2CCOCC2)[C@@H]2CCCO[C@H]12 ?
Solution: 17.6

Exercise: Please give the measured cytotoxicity at 70.5 h for this molecule: O=C1CC(c2cccc(O)c2)c2c(c(C(=O)O)cn2-c2ccccc2)N1 (stereo unspecified)
Solution: 4.21

Exercise: What value of cytotoxicity at 70.5 h has been reported for the following molecule? CCN1C(=O)CCC12CCCN(CCc1ccccc1)C2 (stereo unspecified)
Solution: 34.9

Exercise: Record request: cytotoxicity at 70.5 h value, item CCc1nc(NC(=O)NCCc2cscn2)nn1C
Solution: -4.65

Exercise: Request the reported cytotoxicity at 70.5 h associated with CN(CC1CCCCO1)c1nc2c(cc1C(N)=O)CCC2 (stereo unspecified)
Solution: -8.46

* * *

assay: Human HepG2 cell viability assay in 384 well format; format: toxicity, cell-based; parameters: dose 125 nL, time 70.5 hour; concentration not given beside the values; settings: HepG2 cells, read-out: Inhibition
readout: cytotoxicity at 70.5 h
Write the numeric value and follow it with the unit.

Exercise: What value of cytotoxicity at 70.5 h has been reported for the following compound? O=C(c1coc(COc2cccc3cnccc23)n1)N1CCSCC1
Solution: -5.09%

Exercise: What cytotoxicity at 70.5 h value was documented for this compound, CCc1ccc(O)c(C(=O)NC2CCN(S(=O)(=O)CC)CC2)c1 ?
Solution: 8.84%

Exercise: Param item = O=C1CC(c2ccc(C(=O)O)cc2)c2ncn(-c3cccnc3)c2N1 (stereo unspecified) ; retrieve measured cytotoxicity at 70.5 h.
Solution: -2.41%

Exercise: Bench note: what cytotoxicity at 70.5 h did COc1cc(OC)cc(C(=O)NCCCNc2ncccn2)c1 show?
Solution: -7.17%

Exercise: Entry CCN(CC)c1ccc2ccc(C(=O)O)cn12 has what cytotoxicity at 70.5 h?
Solution: -5.88%

Exercise: Reported cytotoxicity at 70.5 h for CCC1=N[C@@]2(CC[C@@H]3CN(C(=O)Nc4ccccc4)C[C@@H]32)C(=O)N1CC : what is it?
Solution: -85.5%

Exercise: Field request: cytotoxicity at 70.5 h | item: CC(=O)NC[C@]1(O)CCN(C(=O)c2ccc3c(c2)OCO3)C[C@H]1O
Solution: -4.98%

Exercise: Any idea what cytotoxicity at 70.5 h was measured for Cc1cccc(C2CCCN2Cc2nc(N)nc(N(C)C)n2)c1C (stereo unspecified) ?
Solution: -9.17%

Exercise: Value lookup for cytotoxicity at 70.5 h; key = CC1CCN(C(=O)C2(Cc3cc(C4CCOC4)no3)CCNCC2)CC1 (stereo unspecified)
Solution: -1.77%

Exercise: Using the record for COCC(=O)N1CCN(C(=O)C2(c3ccc(C)c(OC)c3)CC2)CC1 , report its cytotoxicity at 70.5 h.
Solution: -2.36%

Exercise: Which cytotoxicity at 70.5 h is reported for this compound? O=C(NCCc1cccnc1)c1cn(CCN2CCNCC2)nn1
Solution: -5.26%

Exercise: // query cytotoxicity at 70.5 h value for entry COCC(=O)N1CCC(c2nc3ccc(-c4ccccc4)cn3n2)CC1
Solution: -7.3%

Exercise: Endpoint output: cytotoxicity at 70.5 h of Cc1ncsc1CN1CCn2c(COCC3CC3)cnc2C1C (stereo unspecified) . Value?
Solution: -2.63%

Exercise: Quick one: cytotoxicity at 70.5 h for N#CC1(C(=O)N2CCOC(c3ccc(Cl)cc3)C2)CCCC1 (stereo unspecified) ?
Solution: -15.9%

Exercise: Give the measured cytotoxicity at 70.5 h of COCCN1C(=O)C2(CCC(C(=O)Nc3ccc(F)cc3)CC2)N=C1C (stereo unspecified) .
Solution: -7.58%

Exercise: What value of cytotoxicity at 70.5 h has been reported for the following compound? Cc1ccc(C)c(C(=O)N2CCN(C(=O)Cc3ccccn3)CC2)c1
Solution: -8.87%

Exercise: # input compound: CC(Cn1cncc1-c1cnn(Cc2ccccc2)c1)N1CCCCC1 (stereo unspecified) ; wanted: its cytotoxicity at 70.5 h
Solution: -1.65%

Exercise: Could you share which cytotoxicity at 70.5 h value was measured for O=C(Cc1ccccc1)N1CCC2(CC1)CN(c1ncccn1)CCO2 ?
Solution: -9.68%

Exercise: For the compound shown here, COCCN1CCN(CCS(=O)(=O)C(F)(F)F)CC1C (stereo unspecified) , give the reported cytotoxicity at 70.5 h.
Solution: -6.2%

Exercise: // cytotoxicity at 70.5 h lookup, key: CCS(=O)(=O)N1CCc2nc(N3CCOCC3)nc(N(C)C)c2CC1
Solution: -7.6%

Exercise: Data request, read-out cytotoxicity at 70.5 h, for O=C1CC(c2ccc(CO)o2)c2cnn(Cc3ccco3)c2N1 (stereo unspecified)
Solution: -7.94%

Exercise: // returns reported cytotoxicity at 70.5 h for input Cn1c(=O)n(C)c2cc(NS(=O)(=O)Cc3ccccc3)ccc21
Solution: -6.3%

Exercise: # cytotoxicity at 70.5 h lookup, item CCOCC1CN(C(=O)N2CCCC2)Cc2cnn(C)c21 (stereo unspecified)
Solution: -6.47%

Exercise: Using the record for Cc1nn(C(C)C)c(C)c1S(=O)(=O)Nc1cccc(F)c1 , report its cytotoxicity at 70.5 h.
Solution: -0.473%

Exercise: Item under review: Cc1nccc(-c2cccc(NCC(=O)N3CCCC(C)C3)c2)n1 (stereo unspecified) . Reported cytotoxicity at 70.5 h?
Solution: -9.5%

Exercise: For COc1ccccc1CN1C(=O)O[C@@H]2CN(CC3CC3)C[C@@H]21 , what is its reported cytotoxicity at 70.5 h?
Solution: -0.52%

Exercise: Entry CC(C)CCC(=O)N1CCN(c2ncnc3nc(N)ccc23)CC1 has what cytotoxicity at 70.5 h?
Solution: -6.9%

Exercise: Suppose we examine the compound CC(C)c1ccc(-c2nnn(CCNS(C)(=O)=O)n2)cc1 ; what cytotoxicity at 70.5 h value has been reported?
Solution: 3.94%

Exercise: Which cytotoxicity at 70.5 h is listed for CCNC(=O)CNC(=O)Nc1c(F)cc(F)cc1-c1ccccc1 ?
Solution: -9.19%

Exercise: Form field: reported cytotoxicity at 70.5 h of N#Cc1cc(Cl)ccc1N1CCOC(C(N)=O)C1 (stereo unspecified)
Solution: -0.791%

Exercise: Need cytotoxicity at 70.5 h of Cc1ccnn1CC(=O)Nc1cc(-c2ccncc2)[nH]n1 , thanks.
Solution: -6.24%

Exercise: Bench note: what cytotoxicity at 70.5 h did CCc1ccc(C(=O)N2CC(C(=O)NC(C)C)C3(CCOCC3)C2)cc1 (stereo unspecified) show?
Solution: -20.6%

Exercise: Item CN(Cc1nnc(C2CC2)o1)C(c1ccc(F)cc1)c1cccnc1 (stereo unspecified) has what recorded cytotoxicity at 70.5 h?
Solution: 0.0755%

Exercise: cytotoxicity at 70.5 h lookup needed for CN1CCN(C(=O)Cn2ccc3c(Cl)cccc32)CC1 , thanks.
Solution: -12.2%

Exercise: What measured cytotoxicity at 70.5 h goes with CNC(=O)CCCNCc1c(C(C)C)nn(C)c1N(C)C ?
Solution: 14.4%

Exercise: Can you look up the measured cytotoxicity at 70.5 h of CC(C)NC(=O)Nc1ccc(-c2nc3c([nH]2)CCNC3)cc1 for me?
Solution: -15.8%

Exercise: Would you kindly share the measured cytotoxicity at 70.5 h for CCc1cccc(NC(=O)CNc2ccccc2OCCC(=O)OC)c1 ?
Solution: -0.0313%

Exercise: Data request, read-out cytotoxicity at 70.5 h, for Cc1ccc(C(=O)N2CCSCC2)cc1NC(C)C
Solution: -3.36%

Exercise: Which cytotoxicity at 70.5 h is reported for this compound? Cc1cc(CCC(=O)O)nc(C2CCCN2c2ccnc(C)n2)n1 (stereo unspecified)
Solution: -6.16%

Exercise: May I ask what cytotoxicity at 70.5 h has been recorded for Cc1cncc(C(=O)N2C[C@H]3CCC[C@@]3(COc3ccccn3)C2)c1 ?
Solution: 7.93%

Exercise: # cytotoxicity at 70.5 h lookup, item CCC1CN(CC(=O)NCCN2CCCCCC2)c2ccccc2S1 (stereo unspecified)
Solution: -1.59%

Exercise: Endpoint output: cytotoxicity at 70.5 h of CN1C(=O)C2(CCN(c3ncccc3C(=O)O)CC2)c2ccccc21 . Value?
Solution: -8.18%

Exercise: Which value of cytotoxicity at 70.5 h has been reported for CS(=O)(=O)Nc1cccc(C(=O)Nc2ccc3c(c2)C(=O)NC3)c1 in the records?
Solution: -6.35%

Exercise: Item COc1ccc(N2CCN(C(=O)Cn3nc(C)c(C)c3C)C(C)C2)cc1 (stereo unspecified) has what recorded cytotoxicity at 70.5 h?
Solution: 6.36%

Exercise: For Cc1ccc(C(=O)N2C[C@@H]3[C@@H](C2)OCC(=O)N3Cc2cccnc2)o1 , what is its reported cytotoxicity at 70.5 h?
Solution: -2.11%

Exercise: Name the recorded cytotoxicity at 70.5 h for CC(C)Cc1cc(NC(=O)c2ccncc2)n(C)n1 .
Solution: -11.6%
